Entries and their measured PPI activity GR80, STEME follow.
Test system: STEME (common chickweed)
Assay: Pre-plant incorporated (PPI) herbicidal activity, cool season
Format: in vivo, Stellaria media
Conditions: pre-plant incorporated; lowest tested rate with 80% or greater inhibition; about 14 days
State just the number; it will be interpreted in g/ha.

Previously resolved entries follow.
Enquiry: # get_value(readout='PPI activity GR80, STEME', item= CCN(CC)C(=O)n1cnc(S(=O)(=O)C(F)(F)C(F)F)n1 [Example 16] )
Return: 300

Enquiry: Please give the measured PPI activity GR80, STEME for this compound: C=C(C)CC(F)(F)S(=O)(=O)c1ncn(C(=O)N(CC)CC)n1 [Example 18]
Return: 100

Enquiry: I'd like to know its PPI activity GR80, STEME. The compound in question is CCN(CC)C(=O)n1cnc(S(=O)(=O)C(F)F)n1 [Example 15]
Return: 300

Enquiry: Fill blank: measured PPI activity GR80, STEME of the compound CCN(CC)C(=O)n1cnc(S(=O)(=O)C(F)(F)Br)n1 [Example 1] is ____.
Return: 100

Enquiry: # lookup: PPI activity GR80, STEME of C=C(Br)CC(F)(F)S(=O)(=O)c1ncn(C(=O)N(CC)CC)n1 [Example 19]
Return: 100

New cases:
Enquiry: Item CCN(CC)C(=O)n1cnc(S(=O)(=O)C(F)(F)C(=O)c2ccccc2)n1 [Example 6] has what recorded PPI activity GR80, STEME?
Return: 100

Enquiry: Can you look up the measured PPI activity GR80, STEME of CCSC(F)(F)S(=O)(=O)c1ncn(C(=O)N(CC)CC)n1 [Example 8] for me?
Return: 30

Enquiry: Suppose we examine the compound CCN(CC)C(=O)n1cnc(S(=O)(=O)C(F)(F)SCC(=O)OC)n1 [Example 11] ; what PPI activity GR80, STEME value has been reported?
Return: 300

Enquiry: Consider the compound shown here: C=CCC(F)(F)S(=O)(=O)c1ncn(C(=O)N(CC)CC)n1 [Example 17] What is its recorded PPI activity GR80, STEME?
Return: 10

* * *

Reported Percent inhibition ABUTH values follow for various compounds
Test system: ABUTH (velvetleaf)
Assay: Pre-plant incorporated (PPI) herbicidal activity, warm season
Assay type: in vivo, Abutilon theophrasti
Conditions: PPI application, 300 g/ha
Write it as a number; the unit % goes unstated.

Enquiry: Tell me the measured Percent inhibition ABUTH of `CCN(CC)C(=O)n1cnc(S(=O)(=O)C(F)(F)C(F)(F)Br)n1` , please.
Return: 20

More entries:
Enquiry: Would you kindly share the measured Percent inhibition ABUTH for `CCN(CC)C(=O)n1cnc(S(=O)(=O)C(F)(F)SCCOC)n1` ?
Return: 20

Enquiry: // query Percent inhibition ABUTH value for entry `CCN(CC)C(=O)n1cnc(S(=O)(=O)C(F)(F)F)n1`
Return: 20

Enquiry: Can you look up the measured Percent inhibition ABUTH of `CCN(CC)C(=O)n1cnc(S(=O)(=O)C(F)(F)C(F)F)n1` for me?
Return: 30

Enquiry: Recorded Percent inhibition ABUTH of `CCN(CC)C(=O)n1cnc(S(=O)(=O)C(F)(F)SCc2ccccc2)n1` , please.
Return: 30

Enquiry: Sample `CCN(CC)C(=O)n1cnc(S(=O)(=O)C(F)(F)SC)n1` — what was its Percent inhibition ABUTH?
Return: 60

Enquiry: Which measured Percent inhibition ABUTH value corresponds to `C=C(CC(F)(F)S(=O)(=O)c1ncn(C(=O)N(CC)CC)n1)C[Si](C)(C)C` ?
Return: 30

Enquiry: Which measured Percent inhibition ABUTH value corresponds to `CCN(CC)C(=O)n1cnc(S(=O)(=O)C(F)(F)Cl)n1` ?
Return: 30

Enquiry: Could you tell me which Percent inhibition ABUTH is on file for `CCN(CC)C(=O)n1cnc(S(=O)(=O)C(F)(F)SCC(=O)OC)n1` ?
Return: 20

* * *

Test system: BRAPP (broadleaf signalgrass)
Test: Pre-plant incorporated (PPI) herbicidal activity, warm season
Assay type: in vivo, Brachiaria platyphylla
Conditions: PPI application, 300 g/ha
Reported Percent inhibition BRAPP values are given for each entry in this list.
# unit: % | format: bare number

Enquiry: What does the record list as Percent inhibition BRAPP for CCN(CC)C(=O)n1cnc(S(=O)(=O)C(F)(F)SCc2ccccc2)n1 [Example 10] ?
Return: 100

Enquiry: Look at this compound and give its reported Percent inhibition BRAPP. CCN(CC)C(=O)n1cnc(S(=O)(=O)C(F)(F)C(F)F)n1 [Example 16]
Return: 100

Enquiry: Query (compound): CCN(CC)C(=O)n1cnc(S(=O)(=O)C(F)(F)SCC(=O)OC)n1 [Example 11] ; field requested: Percent inhibition BRAPP
Return: 100

Enquiry: Using the record for C=C(CC(F)(F)S(=O)(=O)c1ncn(C(=O)N(CC)CC)n1)C[Si](C)(C)C [Example 20] , report its Percent inhibition BRAPP.
Return: 30

Enquiry: I am curious: what Percent inhibition BRAPP value has been reported for CCN(CC)C(=O)n1cnc(S(=O)(=O)C(F)(F)SCCOC)n1 [Example 13] ?
Return: 99

Others:
Enquiry: Using the record for CCN(CC)C(=O)n1cnc(S(=O)(=O)C(F)(F)C(F)(F)Br)n1 [Example 4] , report its Percent inhibition BRAPP.
Return: 100

Enquiry: Would you mind telling me what Percent inhibition BRAPP value was observed for CCN(CC)C(=O)n1cnc(S(=O)(=O)C(F)(F)Cl)n1 [Example 3] ?
Return: 100

Enquiry: So what does the record say about Percent inhibition BRAPP for CCN(CC)C(=O)n1cnc(S(=O)(=O)C(F)(F)F)n1 [Example 2] ?
Return: 90

Enquiry: Report Percent inhibition BRAPP for CCN(CC)C(=O)n1cnc(S(=O)(=O)C(F)(F)SC)n1 [Example 9] please.
Return: 100

* * *

Test system: POLCO (wild buckwheat)
Assay: Pre-plant incorporated (PPI) herbicidal activity, cool season
Assay type: in vivo, Polygonum convolvulus
Settings: weed, PPI application, 10 g/ha
Reported Percent inhibition POLCO values for a set of compounds
Response body: numeric value in %, unit text excluded.

Worked examples, 3 compounds total:
Enquiry: Bench note: what Percent inhibition POLCO did CCN(CC)C(=O)n1cnc(S(=O)(=O)C(F)(F)C(F)F)n1 [Example 16] show?
Return: 0

Enquiry: // query Percent inhibition POLCO value for entry CCN(CC)C(=O)n1cnc(S(=O)(=O)C(F)(F)SCCOC)n1 [Example 13]
Return: 0

Enquiry: For the compound shown here, CCN(CC)C(=O)n1cnc(S(=O)(=O)C(F)(F)SCc2ccccc2)n1 [Example 10] , give the reported Percent inhibition POLCO.
Return: 0

# next compound below
Enquiry: Name the reported Percent inhibition POLCO value associated with the compound CCN(CC)C(=O)n1cnc(S(=O)(=O)C(F)(F)SCC(=O)OC)n1 [Example 11]
Return: 0

* * *

# reported Percent inhibition AVEFA; entries follow
Tested on: AVEFA (wild oat)
Assay: Pre-plant incorporated (PPI) herbicidal activity, cool season
Assay type: in vivo, Avena fatua
Conditions: weed, PPI application, 900 g/ha
Dear colleague, please return just the value in %, with no unit written.

Enquiry: Value lookup for Percent inhibition AVEFA; key = `C=C(CC(F)(F)S(=O)(=O)c1ncn(C(=O)N(CC)CC)n1)C[Si](C)(C)C`
Return: 60

Enquiry: Any idea what its Percent inhibition AVEFA is? The compound is `CCN(CC)C(=O)n1cnc(S(=O)(=O)C(F)(F)SC)n1`
Return: 100

Enquiry: Need Percent inhibition AVEFA, item `CCN(CC)C(=O)n1cnc(S(=O)(=O)C(F)(F)C(F)(F)Br)n1`
Return: 100

Enquiry: Requested read-out: Percent inhibition AVEFA. Entry: `CCN(CC)C(=O)n1cnc(S(=O)(=O)C(F)(F)C(F)F)n1`
Return: 90

Enquiry: Report Percent inhibition AVEFA for `CCN(CC)C(=O)n1cnc(S(=O)(=O)C(F)(F)F)n1` please.
Return: 50

Enquiry: Recorded Percent inhibition AVEFA of `CCN(CC)C(=O)n1cnc(S(=O)(=O)C(F)(F)SCCOC)n1` , please.
Return: 90

Enquiry: Please look up its Percent inhibition AVEFA: `CCN(CC)C(=O)n1cnc(S(=O)(=O)C(F)(F)Cl)n1`
Return: 80

Enquiry: State the recorded Percent inhibition AVEFA for this entry: `CCN(CC)C(=O)n1cnc(S(=O)(=O)C(F)(F)SCc2ccccc2)n1`
Return: 95

Enquiry: Would you mind telling me what Percent inhibition AVEFA value was observed for `CCN(CC)C(=O)n1cnc(S(=O)(=O)C(F)(F)SCC(=O)OC)n1` ?
Return: 60

* * *

Measured PPI activity (GR80) AMARE by item
Tested on: AMARE (redroot pigweed)
Assay: Pre-plant incorporated (PPI) herbicidal activity, warm season
Assay type: in vivo, Amaranthus retroflexus
Conditions: pre-plant incorporated; GR80 = lowest tested rate with 80% or greater inhibition; approx. 14 days after treating; 30/21° C.
Give the value, in units of g/ha, as a plain number.

For orientation, consider the following solved cases.
Enquiry: Which PPI activity (GR80) AMARE is reported for this compound? `CCN(CC)C(=O)n1cnc(S(=O)(=O)C(F)(F)SCC(=O)OC)n1`
Return: 100

Enquiry: PPI activity (GR80) AMARE lookup needed for `CCN(CC)C(=O)n1cnc(S(=O)(=O)C(F)F)n1` , thanks.
Return: 100

Enquiry: Param item = `CCN(CC)C(=O)n1cnc(S(=O)(=O)C(F)(F)Br)n1` ; retrieve measured PPI activity (GR80) AMARE.
Return: 30

Now for the compound whose PPI activity (GR80) AMARE we want.
Enquiry: Could you tell me which PPI activity (GR80) AMARE is on file for `C=C(CC(F)(F)S(=O)(=O)c1ncn(C(=O)N(CC)CC)n1)C[Si](C)(C)C` ?
Return: 300
